Reported Ratio (pH 7.4/6.0) of EC50 values for the following binders.
# TESTED ON: T1, cyno Nectin-4 on cells (cyno, UniProt A0A2K5WES1 32-510)
# T1 construct: whole, on cells; also called HEK293 cells expressing cyno Nectin-4; cyno Nectin-4 cells
# T1 sequence: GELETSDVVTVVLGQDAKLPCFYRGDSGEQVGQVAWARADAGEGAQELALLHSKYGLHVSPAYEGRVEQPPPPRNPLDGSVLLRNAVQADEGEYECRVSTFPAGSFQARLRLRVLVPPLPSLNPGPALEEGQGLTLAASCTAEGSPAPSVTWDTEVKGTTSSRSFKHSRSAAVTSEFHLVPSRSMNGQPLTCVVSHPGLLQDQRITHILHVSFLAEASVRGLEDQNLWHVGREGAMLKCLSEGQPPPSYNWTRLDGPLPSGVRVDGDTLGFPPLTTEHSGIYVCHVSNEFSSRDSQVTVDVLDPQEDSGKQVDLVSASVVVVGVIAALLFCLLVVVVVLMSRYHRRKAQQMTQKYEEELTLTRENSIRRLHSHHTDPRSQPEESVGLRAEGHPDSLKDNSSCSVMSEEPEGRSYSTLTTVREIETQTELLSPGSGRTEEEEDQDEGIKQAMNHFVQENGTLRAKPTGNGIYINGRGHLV
# PROCEDURE TEXT: FACS, HEK293 cells expressing cyno Nectin-4
MEASURED METRIC: Ratio (pH 7.4/6.0) of EC50

- BAP-143-00-06 (antibody, V domains shown, Used as a conjugate with a linker payload (CAB ADC)) VH: EVQLVESGGGLVQPGGSLRLSCAASGFTFSSYNMNWVRQAPGKGLEWVSYISSSSSTIYYADSVKGRFTISRDNAKNSLSLQMNSLRDEDTAVYYCARAYYYGDDVWGQGTTVTVSS VL: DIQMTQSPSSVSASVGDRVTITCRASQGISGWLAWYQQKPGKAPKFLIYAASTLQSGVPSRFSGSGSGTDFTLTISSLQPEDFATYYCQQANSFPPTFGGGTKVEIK: 3.2
- BAP-143-00-02 (antibody, V domains shown, Used as a conjugate with a linker payload (CAB ADC)) VH: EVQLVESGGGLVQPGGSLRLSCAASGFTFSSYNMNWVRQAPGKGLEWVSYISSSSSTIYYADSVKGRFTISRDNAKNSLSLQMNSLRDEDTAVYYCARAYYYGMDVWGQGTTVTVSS VL: DIQMTQSPSSVSASVGDRVTITCRASQGISGWLAWYQQKPGKAPKFLIYAASTLQSGVPSRFSGSGSGTDFTLTISSLQPEDFATYYCQQANSEPPTFGGGTKVEIK: 2.3
- BAP-143-00-04 (antibody, V domains shown, Used as a conjugate with a linker payload (CAB ADC)) VH: EVQLVESGGGLVQPGGSLRLSCAASGFTFSSYNDNWVRQAPGKGLEWVSYISSSSSTIYYADSVKGRFTISRDNAKNSLSLQMNSLRDEDTAVYYCARAYYYGMDVWGQGTTVTVSS VL: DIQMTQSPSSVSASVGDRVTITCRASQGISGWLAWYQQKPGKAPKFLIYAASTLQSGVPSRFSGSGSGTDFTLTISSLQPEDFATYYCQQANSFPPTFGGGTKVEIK: 2.1
- BAP-143-00-01 (antibody, V domains shown, Used as a conjugate with a linker payload (CAB ADC)) VH: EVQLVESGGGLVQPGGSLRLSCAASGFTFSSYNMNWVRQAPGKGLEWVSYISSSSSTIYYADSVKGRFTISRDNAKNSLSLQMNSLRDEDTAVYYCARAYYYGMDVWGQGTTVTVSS VL: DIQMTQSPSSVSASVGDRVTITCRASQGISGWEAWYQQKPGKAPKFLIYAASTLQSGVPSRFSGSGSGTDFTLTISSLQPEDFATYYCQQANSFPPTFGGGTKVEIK: 4.1
- BAP-143-00-03 (antibody, V domains shown, Used as a conjugate with a linker payload (CAB ADC)) VH: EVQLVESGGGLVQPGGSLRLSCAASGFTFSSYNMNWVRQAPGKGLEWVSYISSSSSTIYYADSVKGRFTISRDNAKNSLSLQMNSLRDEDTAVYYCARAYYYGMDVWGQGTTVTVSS VL: DIQMTQSPSSVSASVGDRVTITCRASQGISGWLAWYQQKPGKAPKFLIYAASTLQSGVPSRFSGSGSGTDFTLTISSLQPEDFATYYCQQANSFPDTFGGGTKVEIK: 3.6
- BAP-143-00-05 (antibody, V domains shown, Used as a conjugate with a linker payload (CAB ADC)) VH: EVQLVESGGGLVQPGGSLRLSCAASGFTFSSYNMNWVRQAPGKGLEWVSYISSSSSTIYYADSVKGRFTISRDNAKNSLSLQMNSLRDEDTAVYYCAEAYYYGMDVWGQGTTVTVSS VL: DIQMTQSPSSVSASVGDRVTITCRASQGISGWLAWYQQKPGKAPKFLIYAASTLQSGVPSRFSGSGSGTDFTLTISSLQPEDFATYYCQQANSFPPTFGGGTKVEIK: 2.5
- BAP-143-wildtype (antibody, V domains shown, 150 kDa used in SPR; also called BAP143-00-00; benchmark (BM)) VH: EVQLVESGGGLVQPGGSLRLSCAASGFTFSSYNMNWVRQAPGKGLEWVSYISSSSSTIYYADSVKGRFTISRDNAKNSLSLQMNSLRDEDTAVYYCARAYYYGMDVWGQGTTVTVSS VL: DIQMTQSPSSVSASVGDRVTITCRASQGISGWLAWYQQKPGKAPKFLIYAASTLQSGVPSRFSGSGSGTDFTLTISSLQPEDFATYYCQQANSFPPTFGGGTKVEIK: 1.7
